Test system: KIT-autoinhibited
Conditions: concentration: 1 μM, replicates: in singlicate; n = 1;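 also: KINOMEscan kinase panel screen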
value-type: %Inh (%)

{"compound": "CCCc1ccc(S(=O)(=O)NC2CCN(c3ccnc(Nc4ccc(OC)cc4)n3)C2)cc1 (stereo not drawn)", "readout-units": "%", "result": 0}
{"compound": "Cl.Cl.c1ccc(-c2cc3ccncc3cc2OC2CCNCC2)cc1", "readout-units": "%", "result": 0}
{"compound": "CN1CCC(n2cnc(-c3ccc(F)cc3)c2-c2ccnc(NC3CCNCC3)n2)CC1", "readout-units": "%", "result": 0}
{"compound": "FC(F)(F)c1ccc(-c2nn3ncccc3c2-c2ccnc(Nc3cccc(C(F)(F)F)c3)n2)cc1", "readout-units": "%", "result": 2}
{"compound": "Nc1nc(-c2ccccn2)c(-c2ccnc3ccccc23)s1", "readout-units": "%", "result": 3}
{"compound": "CC(C)(C)OC(=O)NC1CCCN(c2cc(-c3ccc4c(N)n[nH]c4c3)nc(N)n2)C1 (stereo not drawn)", "readout-units": "%", "result": 0}
{"compound": "COc1cc2c(Nc3cccc(NC(=O)c4ccccc4)c3)ncnc2cc1OCCCN1CCOCC1", "readout-units": "%", "result": 0}
{"compound": "N#Cc1ccc(Oc2ccc(Nc3ncnc4cc[nH]c34)cc2Cl)cc1", "readout-units": "%", "result": 3}
{"compound": "Clc1cccc(-c2nc(Nc3ccncc3)c3ccccc3n2)c1", "readout-units": "%", "result": 1}

* * *

Tested on: CSNK2A2
Settings: concentration: 1 μM, replicates: in singlicate; n = 1

{"smiles-str": "CNc1nccc(-c2c(-c3ccc(F)cc3)ncn2CCCN2CCOCC2)n1", "%Inh, %": 5}
{"smiles-str": "Fc1cccc(COc2ccc(Nc3ncnc4sc(-c5ccc[nH]5)cc34)cc2Cl)c1", "%Inh, %": 0}
{"smiles-str": "O=C(Nc1n[nH]c2nc(-c3ccco3)c(Br)cc12)c1ccc(CN2CCCC2)cc1.O=C(O)[C@H](O)[C@@H](O)C(=O)O", "%Inh, %": 29}
{"smiles-str": "Cl.Cl.c1ccc(-c2cc3ccncc3cc2OC2CCNCC2)cc1", "%Inh, %": 27}
{"smiles-str": "Clc1ccc(-c2cc(-c3c[nH]nc3-c3ccccn3)ccn2)cc1", "%Inh, %": 21}
{"smiles-str": "CCc1nc(-c2cccc(C)c2)c(-c2ccnc(NC(=O)c3ccccc3)c2)s1", "%Inh, %": 29}
{"smiles-str": "Clc1cc(Nc2ncnc3cc[nH]c23)ccc1OCc1ccccn1", "%Inh, %": 31}
{"smiles-str": "Clc1cccc(-c2nc(Nc3ccncc3)c3ccccc3n2)c1", "%Inh, %": 14}
{"smiles-str": "Cc1ccc(C)c(NC(=O)NCCNc2ccnc(Nc3ccc(F)cc3)n2)c1", "%Inh, %": 0}
{"smiles-str": "O=C(CCO)NCCn1ccc2ncnc(Nc3ccc(Oc4cccc(C(F)(F)F)c4)c(Cl)c3)c21", "%Inh, %": 0}
{"smiles-str": "c1ccc(-c2ccc3c(-c4ccnc(Nc5ccc6c(c5)OCCO6)n4)cnn3n2)cc1", "%Inh, %": 9}
{"smiles-str": "Nc1nc(-c2ccc3c(N)n[nH]c3c2)cc(N2CCCCC2)n1", "%Inh, %": 12}
{"smiles-str": "Cn1cc(-c2ccc3c(c2)CCN3C(=O)Cc2cccc(C(F)(F)F)c2)c2c(N)ncnc21", "%Inh, %": 1}
{"smiles-str": "NC(=O)c1sc(-n2cnc3ccccc32)cc1OCc1ccccc1F", "%Inh, %": 6}
{"smiles-str": "CSc1ccc(NC2=C(c3ccccc3Cl)C(=O)NC2=O)cc1", "%Inh, %": 10}
{"smiles-str": "FC(F)(F)c1cc(Nc2nccc(-c3c(-c4ccc(Cl)cc4)nn4ncccc34)n2)ccc1Cl", "%Inh, %": 11}
{"smiles-str": "Cc1ccc(O)cc1Nc1cc(C(F)(F)F)nc2ccc(-c3ccncc3)cc12", "%Inh, %": 2}

Just for reference, paper PMC5540273 is where these values come from.
